The reported measurements were obtained from patent US20080280879A1.

System: Staph aureus 1146
Assay: MIC, microtiter broth dilution (CLSI M7-A7), Assay 1, Table 12 column B, no serum
Assay type: cell-based, Staphylococcus aureus
Conditions: Staphylococcus aureus, 1146, Staph aureus 1146, Assay 1, no serum
Source text: The assays described herein include a panel of bacterial isolates of Staphylococcus aureus. […] The MIC value represents the lowest concentration of drug measured which prevented macroscopically visible growth under the conditions and specific doses tested. […]
endpoint_label: MIC (µg/mL)

[[record]]
molecule = "COc1ccc2nccc([C@@H](O)CC[C@@H]3CCN(C4CC(c5c(F)ccc(F)c5F)C4)C[C@@H]3C(=O)O)c2c1 (stereo partly shown)"
censoring_operator = "<"
numeric_readout = 0.0625

[[record]]
molecule = "COc1ccc2ncc(F)c(C(O)CCC3(C(=O)O)CCN(C4CC(c5ccccc5)C4)CC3)c2c1 (stereo not shown)"
censoring_operator = "="
numeric_readout = 4

[[record]]
molecule = "COc1ccc2nccc(C(O)CC[C@@H]3CCN(C4CCC(c5ccc(Cl)cc5)C4)C[C@@H]3C(=O)O)c2c1 (stereo partly shown)"
censoring_operator = "="
numeric_readout = 2

[[record]]
molecule = "COc1ccc2nccc(C(O)CC[C@@H]3CCN(C4CC(c5cc(C)sn5)C4)C[C@@H]3C(=O)O)c2c1 (stereo partly shown)"
censoring_operator = "="
numeric_readout = 1

